Would you mind telling me the reported area over the GR curve of each entry?
system: MDAMB175VII; assay: area over the GR curve, 72 h; higher = more effect
Give bare numbers, in GR.

Past entries and their recorded results:
{"columns": ["MOLECULE", "EXPERIMENTAL SYSTEM", "area over the GR curve / GR"],
 "data": [
  ["CC(C)Nc1cc(-c2c[nH]c(C(=O)N[C@H](CO)c3cccc(Cl)c3)c2)c(Cl)cn1 [BVD523] (max 10 µM)", "MDAMB175VII", 0.472],
  ["CNc1nc(-c2ccc3c(N)n[nH]c3c2)cc(N2C[C@@H](C(=O)NC3CCCCC3)CC[C@H]2C)n1 (max 10 µM)", "MDAMB175VII", 0.59],
  ["CN(C)C(=O)c1cc2cnc(Nc3ccc(N4CCNCC4)cn3)nc2n1C1CCCC1 [LEE011/Ribociclib] (max 10 µM)", "MDAMB175VII", 0.8],
  ["CO[C@@H](C)Cn1c(=O)n(C)c2cnc3ccc(-c4cncc(C(C)(C)O)c4)cc3c21 (max 10 µM)", "MDAMB175VII", 1.32]
]}

Consider the record given below.
Task: Which area over the GR curve value is on record for CN1CCN(CCOc2cc(OC3CCOCC3)c3c(Nc4c(Cl)ccc5c4OCO5)ncnc3c2)CC1 [Saracatinib/AZD0530] (max 10 µM) ?
Output: 0.762

---

system: HCC1419; assay: area over the GR curve, 72 h; higher = more effect
Record Criterion met whenever area over the GR curve is at 0.5 GR or higher; record Criterion not met when lower.

Worked examples, 5 compounds total:
{"columns": ["COMPOUND", "QUALITATIVE LABEL"],
 "data": [
  ["Nc1ccc(-c2ccc3ncc4ccc(=O)n(-c5cccc(C(F)(F)F)c5)c4c3c2)cn1 [Torin2] (max 1 µM)", "Criterion met"],
  ["COc1cc([C@@H]2c3cc4c(cc3[C@@H](O[C@@H]3O[C@@H]5CO[C@@H](C)O[C@H]5[C@H](O)[C@H]3O)[C@H]3COC(=O)[C@H]23)OCO4)cc(OC)c1O [Etoposide] (max 10 µM)", "Criterion not met"],
  ["O=C(c1cc(Cc2n[nH]c(=O)c3ccccc23)ccc1F)N1CCN(C(=O)C2CC2)CC1 [Olaparib/AZD2281] (max 10 µM)", "Criterion not met"],
  ["COc1ccc2c(c1)[C@]1(C[C@H]1c1ccc3c(/C=C/c4ccc(CN5C[C@@H](C)O[C@@H](C)C5)cc4)n[nH]c3c1)C(=O)N2", "Criterion not met"],
  ["CN1CCN(CCOc2cc(OC3CCOCC3)c3c(Nc4c(Cl)ccc5c4OCO5)ncnc3c2)CC1 [Saracatinib/AZD0530] (max 10 µM)", "Criterion not met"]
]}

Now look at this one.
Task: Could you please find out whether Nc1cc(C(F)(F)F)c(-c2cc(N3CCOCC3)nc(N3CCOCC3)n2)cn1 [Buparlisib/NVP-BKM120] (max 10 µM) has area over the GR curve that meets 0.5 GR or exceeds it?
Output: Criterion not met

---

tested on: EVSAT; assay: area over the GR curve, 72 h; higher = more effect;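 also: Dye Drop or Deep Dye Drop imaging of viable cells in 384-well plates (Hoechst nuclei, LIVE/DEAD dye), nine half-log doses, GR normalized to DMSO controls and time-zero plates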
READOUT: area over the GR curve (GR)
Numbers only, in GR.

Please report area over the GR curve for every entry that follows.
1. COc1cc2nccc(Oc3ccc(NC(=O)C4(C(=O)Nc5ccc(F)cc5)CC4)cc3)c2cc1OC [Cabozantinib] (max 10 µM)
2. CN(C)CC[C@H](CSc1ccccc1)Nc1ccc(S(=O)(=O)NC(=O)c2ccc(N3CCN(Cc4ccccc4-c4ccc(Cl)cc4)CC3)cc2)cc1[N+](=O)[O-] [ABT-737] (max 10 µM)
3. CNC(=O)c1cccc(-c2ccc3c(N4CCOC[C@@H]4C)nc(N4CCOC[C@@H]4C)nc3n2)c1 [AZD2014] (max 10 µM)
4. CCN1CCN(Cc2ccc(Nc3ncc(F)c(-c4cc(F)c5nc(C)n(C(C)C)c5c4)n3)nc2)CC1 (max 10 µM)
5. CCC(=O)Nc1ccc(C(=O)Nc2ccc(Nc3ncc4c(n3)N(C)c3ccc(C)cc3C(=O)N4C)cc2)cc1 [FMF-03-145-1]
6. CC(C)NC[C@@H](C(=O)N1CCN(c2ncnc3c2[C@H](C)C[C@H]3O)CC1)c1ccc(Cl)cc1 [Ipatasertib/GDC0068] (max 10 µM)

Output:
1: 0.0366; 2: 0.0258; 3: 0.75; 4: 0.324; 5: 1; 6: 0.463
